# MEASURED TARGET: Glucose transporter (Leishmania mexicana) (UniProt O61059)
# PROCEDURE TEXT: ST_JUDE_LEISH: Cytotoxicity at 2uM final concentration against transgenic Leishmania Mexicana promastigotes LmGT2 that are glucose transport deficient and complemented with the L. Mexicana glucose transporter 2. Activity is measured by DNA content using SYBR green in vitro
# Type: functional
REPORTED PROPERTY: inhibition

Kindly note: Glucose transporter (Leishmania mexicana) (UniProt O61059), CSc1cccc(Nc2nc3ccc(S(=O)(=O)NCC(C)C)cc3n2C(C)C(C)C)c1 (stereo not given) , inhibition value reported: 2.98%

Kindly note: Glucose transporter (Leishmania mexicana) (UniProt O61059), CCn1ccc2c(N3CCCCS3(=O)=O)cc(C(=O)N[C@@H](Cc3ccccc3)[C@H](O)CNC(C)(C)CCCC(C)C)cc21 , inhibition value reported: 5.14%

====

# maps each entry to its inhibition
# MEASURED TARGET: Glucose transporter (Leishmania mexicana) (UniProt O61059)
# PROCEDURE TEXT: ST_JUDE_LEISH: Cytotoxicity at 2uM final concentration against transgenic Leishmania Mexicana promastigotes LmGT2 that are glucose transport deficient and complemented with the L. Mexicana glucose transporter 2. Activity is measured by DNA content using SYBR green in vitro
# Assay type: functional
Please state the figure in %; there is no need to write the unit.

Known results for compounds:
{"columns": ["COMPOUND", "RESULT UNITS", "inhibition"],
 "data": [
  ["CC(C)(CNC(=O)[C@H]1CCCN1)c1nc(-c2ccc(Cl)c(O)c2)c(-c2ccncc2)[nH]1", "%", 8.28],
  ["COc1ccc(C2NCCc3c2[nH]c2ccccc32)cc1CN1CCN(c2ccc(F)cc2)CC1 (stereo not given)", "%", 0.15],
  ["O=C(NCCN1CCCC1)N1CCCN(c2ncnc3cc(-c4ccc(Cl)cc4)sc23)CC1", "%", 0.08],
  ["Fc1ccc2[nH]c(-c3cccc(-c4ccc(CNCc5cnn(-c6ccccc6)n5)cc4)c3)nc2c1", "%", 0.03],
  ["CCc1nc(N)nc(N)c1-c1ccc(C(C)C)cc1", "%", 2.86],
  ["Cn1cnc2nc(NCCc3ccccc3)nc(NCc3cccc4ccccc34)c21", "%", -1.12],
  ["Nc1nccc2ccc(-c3cccc(OCc4ccccc4)c3)cc12", "%", -2.03],
  ["CC(C)(C)c1ccccc1OC(=O)c1ccccc1", "%", -0.79]
]}

Reported inhibition of Cc1[nH]c(C)c(-c2ccc(OCc3ccc(F)cc3)nc2)c(=O)c1Br : 0.74

Reported inhibition of CC(C)n1ncc2c(C(=O)N3CCCC4CCCCC43)cc(C3CC3)nc21 (stereo not given) : 5.73

====

# MEASURED TARGET: Hexose transporter 1 (Plasmodium falciparum)
# PROCEDURE TEXT: ST_JUDE_LEISH: Cytotoxicity at 2uM final concentration against transgenic Leishmania Mexicana promastigotes LmPfHT that are glucose transport deficient and complemented with the Plasmodium falciparum hexose transporter. Activity is measured by DNA content using SYBR green in vitro
# Assay type: functional
# maps each entry to its inhibition
Please state the figure in %; there is no need to write the unit.

Known results for compounds:
{"columns": ["COMPOUND", "RESULT UNITS", "inhibition"],
 "data": [
  ["O=C(Nc1ccc(C(=O)OCC2CCCCC2)cc1)N[C@@H](Cc1ccc(O)cc1)C(=O)NC1CCN(Cc2ccc(O)cc2)C1 (stereo not given in full)", "%", 2.04],
  ["FC(F)(F)c1cc(C(F)(F)F)c2cc(CNCCCNc3nc4ccccc4[nH]3)[nH]c2c1", "%", 0.32],
  ["CC(C)(C)CCOC(=O)N1CCc2c(cc(O)c(O)c2Cl)C(c2ccc(O)cc2)C1 (stereo not given)", "%", 0.65],
  ["CCNC(=O)c1ccc2c(c1)c(C)c(C)n2Cc1ccc(F)cc1", "%", -0.64],
  ["N#Cc1ccc(N2CCN(Cc3cccc(-c4ccc(-c5nc6cc(C(F)(F)F)ccc6[nH]5)cc4)c3)CC2)nc1", "%", 6.49],
  ["Cc1cc(N)c2cc(NC(=O)/C=C/c3ccc([N+](=O)[O-])cc3)ccc2n1", "%", 1.19],
  ["CCOc1ccc2c(c1)OC(c1ccccc1)(C(F)(F)F)NC2=O (stereo not given)", "%", -0.92],
  ["CN(C)Cc1ccc(-c2ccc3ccnc(N)c3c2)cc1", "%", 4.43]
]}

Reported inhibition of CCc1cc2c3c(N)nc(N)nc3ccc2n1C(C)(C)C : 94.4

Reported inhibition of CN(C)CCNC(=O)c1cc2c(-c3ccc(Cl)cc3)nn(C)c2s1 : 2.13

Reported inhibition of CN(C1CCC(NC(=O)/C=C/c2ccccc2)CC1)C1CC2(CCN(C(=O)OC(C)(C)C)CC2)c2ccccc21 (stereo not given) : 5.58

Reported inhibition of CCCOc1c(CCNCCCCNCCc2ccc3ccccc3c2OCCC)ccc2ccccc12 : 13.6

Reported inhibition of O=C(/C=C/c1ccc(Cl)c(Cl)c1)N1CCC(CCCN2CCC(c3c[nH]c4ccccc34)CC2)CC1 : 51.2

Reported inhibition of COCCOc1ccc(C(F)(F)F)cc1NC(=O)Cc1c(F)cccc1Cl : 8.21

Reported inhibition of Cc1cc(C(=O)CN2C(=O)NC3(CCCc4ccccc43)C2=O)c(C)n1Cc1ccc(F)cc1 (stereo not given) : 2.54

Reported inhibition of CCCOc1ccc(-c2nonc2NC(=O)c2ccccc2OC)cc1OCCC : 14.6

Reported inhibition of CC(C)Sc1nncc(-c2cnnc(SC(C)C)n2)n1 : -0.11

Reported inhibition of CC(C)(C)OC(=O)NCC(=O)N(Cc1ccccc1)Cc1ccccc1 : 4.38

Reported inhibition of CN(C)C(S)=NN=Cc1cccc(O)c1O : 6.87

Reported inhibition of O=C(NC1CCCCC1)N(Cc1cccc(-c2ccc(CNCCc3ccccc3)cc2)c1)C1CCN(Cc2ccccc2)CC1 : 6.86

====

# maps each entry to its inhibition
# MEASURED TARGET: Glucose transporter (Leishmania mexicana) (UniProt O61059)
# PROCEDURE TEXT: ST_JUDE_LEISH: Cytotoxicity at 2uM final concentration against transgenic Leishmania Mexicana promastigotes LmGT2 that are glucose transport deficient and complemented with the L. Mexicana glucose transporter 2. Activity is measured by DNA content using SYBR green in vitro
# Assay type: functional
Please state the figure in %; there is no need to write the unit.

{"columns": ["SMILES STRUCTURE", "inhibition [%]"],
 "data": [
  ["COc1ccc2[nH]ccc(=NN=Cc3cccc(F)c3)c2c1", 0.07],
  ["CNC(=O)Cc1ccc(C(=O)Nc2cccc(-c3csc(-c4nc5ccccc5[nH]4)c3)c2)cc1", 1.68],
  ["COc1ccc2ccccc2c1C=NN=c1cc[nH]c2ccc(F)cc12", 7.98],
  ["CCOc1ccc2nc3cc(N)ccc3c(N)c2c1", 1.19]
]}

Reported inhibition of Cc1cc(N(C)C)nc(Nc2ccc(NC(=O)c3c(F)cccc3Cl)cc2)n1 : -0.01

Reported inhibition of O=C(Nc1ccccc1Br)N[C@@H]1CCN(c2ccnc3ccccc23)C1 : 3.01

Reported inhibition of Cn1cnc2c(Nc3ccncc3)nc(-c3ccc4c(c3)OCO4)nc21 : 3.95

Reported inhibition of O=C(/C=C/c1ccc(Cl)c(Cl)c1)NCCCCCN1CCCN(C(=O)Nc2cc(F)cc(F)c2)CC1 : 8.86

Reported inhibition of O=C(N[C@H]1CCN(CCc2ccc(O[C@H]3CCNC3)c(F)c2)C1)c1ccc(Cl)c(Cl)c1 : 9.34

Reported inhibition of O=C(c1ccccc1)N(Cc1ccccc1-c1ccc(CNCCc2ccccc2)cc1)C1CCN(Cc2ccccc2)CC1 : 14.7

====

# maps each entry to its inhibition
# MEASURED TARGET: Glucose transporter (Leishmania mexicana) (UniProt O61059)
# PROCEDURE TEXT: ST_JUDE_LEISH: Cytotoxicity at 2uM final concentration against transgenic Leishmania Mexicana promastigotes LmGT2 that are glucose transport deficient and complemented with the L. Mexicana glucose transporter 2. Activity is measured by DNA content using SYBR green in vitro
# Format: functional
Please state the figure in %; there is no need to write the unit.

Known results for compounds:
{"columns": ["SMILES STRUCTURE", "REPORTED PROPERTY", "VALUE OBSERVED"],
 "data": [
  ["COc1cccc(CCN(Cc2ccccc2-c2ccc(CNC3CC(C)(C)NC(C)(C)C3)cc2)C(=O)NC2CCCCC2)c1", "inhibition", 2.67],
  ["O=C(NCc1cccc(F)c1)Nc1cccc(-c2cccc(-c3nc4cc(C(F)(F)F)ccc4[nH]3)c2)c1", "inhibition", -2.1],
  ["COc1ccc(NC(=O)c2ccc(-c3ccc(-c4cccnc4)cc3)c(C)c2)cc1OCCN(C)C", "inhibition", 0.84],
  ["N#Cc1ccc(N[C@@H](CC2CCCCC2)C(=O)NCc2cc(Cl)cc(Cl)c2)c2ccccc12", "inhibition", 4.82]
]}

# context switch: different compound, same inhibition
Reported inhibition of N=c1c2c(n(Cc3ccccc3)c3c1CCC3)CCCC2 : 7.1
